- Protocol Details: Stat Signaling Pathway (AID 446);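 note: ME-180 cervical cancer cells given 40 pM IL-6 alongside compound; SIE-controlled beta-lactamase reporter measured as 460/530 nm FRET emission ratio; % is set by controls: 0 for no effect and ±100 for the full control effect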
- Condition Set: ME-180 (cervical carcinoma) SIE beta-lactamase reporter, IL-6 stimulated, 5 h; at 38 µM (top of the series)
- Method: NCGC Assay Overview: The IL-6/STAT signaling pathway was assayed in ME-180 cervical carcinoma cells by a beta-lactamase reporter gene controlled by a STAT Inducible Element (SIE). This reporter is induced by IL-6 at 40 pM AC50 and inhibited by the pan JAK inhibitor, 2-(1,1-Dimethylethyl)-9-fluoro-3,6-dihydro-7H-benz[h]-imidaz[4,5-f]isoquinolin-7-one, at approximately 10 nM AC50. Plated cells were incubated overnight and on the following day, stimulated with 40 pM IL-6 for 5 hrs. […]
Records with an inconclusive call do not appear.
Recorded Endpoint: activity, negative = inhibition (%)

>>> print(df.to_string())
                     structure_smiles_string  observed_measurement
 0  N#C/C(=C\c1ccc(O)c(O)c1)C(=O)NCCCc1ccccc1                 -10.2
 1              NCCNC(=O)c1ncsc1-c1cccc(F)c1                  3.48
 2                            NCCCS(=O)(=O)O                 -2.17
 3  N#C/C(=C\c1c[nH]c2ccccc12)C(=O)c1ccc(O)c(O)c1                   -11
 4  CCCn1c(=O)c2[nH]c(-c3ccc(OCC(=O)NCCN)cc3)nc2n(CCC)c1=O                   -14
 5                 Cc1ccc(O)c(N=Nc2ccccc2)n1                 -4.23
 6  C[N+](C)(CCCCCC[N+](C)(C)CCCN1C(=O)c2cccc3cccc(c23)C1=O)CCCN1C(=O)c2cccc3cccc(c23)C1=O                 0.109
 7      NC(N)=NC(=O)c1nc(Cl)c(N2CCCCCC2)nc1N                     1
 8       O=C(O)c1cc(=O)c2c(Cl)cc(Cl)cc2[nH]1                  15.7
 9                              NCCCCCCCCCCN                 -2.37
10           CN1CCc2cc(NC(=O)Nc3cccnc3)ccc21                  4.31
11   Fc1ccc(C(OCCCc2cnc[nH]2)c2ccc(F)cc2)cc1                  27.8
12  O=C(O)CC[C@@H](C(=O)O)N1C(=O)c2ccccc2C1=O                0.0495
13  O=c1[nH]c2cc([N+](=O)[O-])c([N+](=O)[O-])cc2[nH]c1=O                    21
14                                        NO                  11.6
15           COc1cc2c(CCNC(C)=O)c[nH]c2cc1Cl                 -15.8
16                      CC(=O)SCC[N+](C)(C)C                  1.77
17                    c1cnc2c(c1)ccc1cccnc12                 -9.47
18         O=C1C(SCCO)=C(SCCO)C(=O)c2ccccc21                   134
19  Oc1cc2c(cc1O)CN(C(=S)NCCc1ccc(Cl)cc1)CCC2                  6.62
20  Cc1nc2sccn2c(=O)c1CCN1CCC(=C(c2ccccc2)c2ccc(F)cc2)CC1                  13.4
21   N#C/C(=C\c1ccc(O)c(O)c1)C(=O)NCc1ccccc1                 -18.4
22   Clc1ccc(N2CCN(Cc3c[nH]c4ncccc34)CC2)cc1                 -44.5
23  CC(C)(C=O)Cc1cc(C(C)(C)C)c(O)c(C(C)(C)C)c1                 -12.1
24  O=C(O)c1cc([N+](=O)[O-])ccc1NCCCc1ccccc1                 -16.2

----------
- Protocol Details: Primary qHTS for inhibitors of nuclear receptor binding SET domain protein 2 (NSD2) in an RCH-ACV wild type WT cells (2C) (AID 1645877); note: nearly all actives have a fitted effect of over 70% in size
- Condition Set: RCH-ACV (leukaemia line) NSD2 WT (2C) viability, CellTiter-Glo, 72 h; series mostly up to 44.9 µM
Records with an inconclusive call do not appear. Calls of active or inactive are those of the source. The call rests on the fitted dose curve; in most records, active means well fitted inhibition curve with a large enough effect; inconclusive means small, poorly fitted or top-dose-only effect; inactive means no such curve, though single readings can be large or run the other way.
Classes used: TRUE for active, FALSE for inactive

Molecule	Label
Brc1c(Br)c(Br)c2n[nH]nc2c1Br	FALSE
[O-][n+]1ccccc1SSc1cccc[n+]1[O-]	TRUE
CCOC(=O)c1ccccc1O	FALSE
Nc1cc(-c2ccncc2)c[nH]c1=O	FALSE
CN[C@H](CC(C)C)C(=O)N[C@H]1C(=O)N[C@@H](CC(N)=O)C(=O)N[C@H]2C(=O)N[C@H]3C(=O)N[C@H](C(=O)N[C@H](C(=O)O)c4cc(O)cc(O)c4-c4cc3ccc4O)[C@H](O)c3ccc(c(Cl)c3)Oc3cc2cc(c3O[C@@H]2O[C@H](CO)[C@@H](O)[C@H](O)[C@H]2O[C@H]2C[C@](C)(N)[C@H](O)[C@H](C)O2)Oc2ccc(cc2Cl)[C@H]1O	FALSE
COC(=O)C1=C(C)NC(C)=C(C(=O)OCC(C)=O)C1c1ccccc1[N+](=O)[O-] (stereo not given)	TRUE
CCCCCCCCCCCCCCCC(=O)OC(C)C	FALSE
c1ccc2sc(SN3CCOCC3)nc2c1	FALSE
Cc1ccc2c(n1)Oc1ccc(C(C)C(=O)OCC(=O)N(C)C)cc1C2 (stereo not given)	FALSE
CC1(C)[C@@H](O[C@H]2O[C@H](C(=O)O)[C@@H](O)[C@H](O)[C@H]2O[C@@H]2O[C@H](C(=O)O)[C@@H](O)[C@H](O)[C@H]2O)CC[C@]2(C)[C@H]3C(=O)C=C4[C@@H]5C[C@@](C)(C(=O)O)CC[C@]5(C)CC[C@@]4(C)[C@]3(C)CC[C@@H]12	FALSE
CS(=O)(=O)c1ccc(-n2nc(C(F)(F)F)cc2-c2ccc(F)cc2)cc1	FALSE
O=Cc1ccc(O)c(O)c1O	TRUE
COc1ccc(-c2cc(=S)ss2)cc1	FALSE
N=C(N)N	FALSE
Nc1ccc(C(=O)O)c(O)c1	FALSE
O=C(O)/C=C\C(=O)O	FALSE
CN(C)c1ccc(C(=C2C=CC(=[N+](C)C)C=C2)c2ccccc2)cc1	TRUE
CCNc1nc2c(ncn2[C@H]2C[C@H](O)[C@@H](CO)O2)c(=O)[nH]1	FALSE
CCNC(=O)[C@H]1O[C@@H](n2cnc3c(N)nc(NCCc4ccc(CCC(=O)O)cc4)nc32)[C@H](O)[C@@H]1O	FALSE
Cc1ccc(C(=O)c2ccc(CC(=O)O)n2C)cc1	FALSE

----------
- Target Or Test System: Cytochrome P450 2D6 (Homo sapiens)
- Protocol Details: Cytochrome P450 family 2 subfamily D member 6 (CYP2D6) small molecule antagonists: luciferase biochemical (cell-free) qHTS assay (AID 1645840); note: nearly all actives have a fitted effect of over 55% in size
- Condition Set: P450-Glo CYP2D6 enzyme, luciferin luminescence, 1 h; series mostly up to 57.4 µM
Inconclusive results are not listed. The source made the active and inactive calls. Calls come from the whole dose curve; as a rule, active = well fitted inhibition curve with a large enough effect in the repeat runs; inconclusive = weak or mixed curves; inactive = flat fitted curve, though single readings scatter.
Labels: 1 for active, -1 for inactive

>>> df
                                   compound  label
0           O=C1NC(O)=NC1(c1ccccc1)c1ccccc1     -1
1  CC(=O)SCC(CC(=O)c1ccc(C)cc1)C(=O)O (stereo not drawn)     -1
2  COc1ccnc2c1CCCCC2S(=O)c1nc2ccccc2[nH]1 (stereo not drawn)      1
3              CN(C)c1ccc(N=NS(=O)(=O)O)cc1      1
4       CN(CCCOc1ccc(Cc2ccccc2)cc1)CCC(=O)O     -1
5        CN1CCN(c2cc3c(nn2)Oc2ccccc2N3C)CC1     -1
6         O=C(Nc1ccc(C(=O)O)c(O)c1)c1ccccc1      1
7  CC(C(=O)O)c1ccc(C(=O)c2ccccc2)s1 (stereo not drawn)     -1

----------
- Protocol Details: qHTS for differential inhibitors of proliferation of Plasmodium falciparum line Dd2 (AID 1882); note: nearly all actives have a fitted effect of over 65% in size
- Condition Set: Plasmodium falciparum Dd2 proliferation inhibition; series mostly up to 28.7 µM
Inconclusive results are not listed. Active and inactive are the calls of the source. Calls follow the shape of the dose curve; as a rule, active = well fitted inhibition curve with a large enough effect; inconclusive = small, poorly fitted or top-dose-only effect; inactive = flat fitted curve, though single readings scatter.
Labels: T (active), F (inactive)

                                    compound  label
 0  Cc1ccc(C(=O)O[C@H](C(=O)O)[C@@H](OC(=O)c2ccc(C)cc2)C(=O)O)cc1 (tested in a mixture with another compound)      F
 1  S=C(S)OC1CC2CC1C1CCCC21 (stereo unspecified)      F
 2  CCCCCCCCCCCCCCCCCC(=O)NCC(COP(=O)([O-])OCC[N+](C)(C)C)OCC (stereo unspecified)      F
 3  CC12C(=O)OC(=O)C1(C)C1CCC2O1 (stereo unspecified)      T
 4         O=C1C(SCCO)=C(SCCO)C(=O)c2ccccc21      T
 5  C=C[C@@H]1CN2CC[C@@H]1C[C@H]2[C@H](O)c1ccnc2ccc(OC)cc12      T
 6  O=C1O/C(=C/Br)CCC1c1cccc2ccccc12 (stereo unspecified)      F
 7   Clc1ccc(N2CCN(Cc3c[nH]c4ncccc34)CC2)cc1      F
 8  COc1cc2nc(N3CCN(C(=O)OCc4ccccc4)C(C(=O)NC(C)(C)C)C3)nc(N)c2cc1OC (stereo unspecified)      T
 9                      CN1CCC[C@H]1c1cccnc1      F
10                              NCCCCCCCCCCN      F
